# TEST METHOD NOTES: gradient 5% acetonitrile 3 min, to 50% in 2 min, to 85% in 15 min, held 3 min, 100 µL/min
# ASSAY CONDITIONS: column: Zorbax Extend-C18 2.1 x 50 mm; eluents: water / acetonitrile, 0.1% formic acid
# cutoff 700 s applies to RP-LC retention time; >= gives Yes, < gives No

As a guide, the following entries are already answered.
1. Cc1ccc(-c2cc3c(=O)n(Cc4noc(CN5CCc6ccccc65)n4)ccn3n2)cc1 = Yes
2. Cn1c(=O)c(=O)n(C)c2cc(N3CCOCC3)c(NC(=O)c3ccco3)cc21 = No
3. COc1ccccc1CNC(=O)C1c2ccccc2C(=O)N2CCc3cc(OC)c(OC)cc3C12 (centres undefined) = Yes
4. Cc1ccc(C)c(NC(=O)c2cn(-c3ncccc3-c3nc(C(C)C)no3)cn2)c1 = Yes
5. COc1cccc2c(Nc3ccccc3)cc(C(=O)N3CCSCC3)nc12 = No
6. CCN(CC)CCCNS(=O)(=O)c1cc(-c2cc(C)no2)cs1 = No

q: Tell me whether RP-LC retention time is at least 700 s here: O=S(=O)(c1cccn2c(SCc3ccccc3F)nnc12)N1CCCCC1
a: Yes

----------
# TEST METHOD NOTES: gradient 5% acetonitrile 3 min, to 50% in 2 min, to 85% in 15 min, held 3 min, 100 µL/min
# ASSAY CONDITIONS: column: Zorbax Extend-C18 2.1 x 50 mm; eluents: water / acetonitrile, 0.1% formic acid
MEASURE: RP-LC retention time (s)
Numeric only. Scale: s

1) Cc1ccc(Sc2nccnc2N2CCCC(C(=O)NC3CCCCC3)C2)cc1 (centres undefined) = 1150
2) O=C(Cn1nc2c3cc(-c4ccccc4)nn3ccn2c1=O)Nc1cccc(Br)c1 = 952
3) COc1ccc2nc(C(=O)NCc3cccc(Br)c3)cn2n1 = 896

q: Fill blank: measured RP-LC retention time of the compound O=c1c2sccc2n(Cc2nc(-c3ccc(F)cc3)no2)c(=O)n1Cc1ccccc1 is ____.
a: 1030

q: Fill blank: measured RP-LC retention time of the compound COc1ccc(CNC(=O)Nc2ccc(-c3nc(-c4ccccc4)co3)cc2)cc1 is ____.
a: 1050

q: Fill blank: measured RP-LC retention time of the compound CCOC(=O)c1c(C)[nH]c(C(=O)N2CCC(CC(=O)NCCN3CCOCC3)CC2)c1C is ____.
a: 575

q: Fill blank: measured RP-LC retention time of the compound O=C(Cn1c(=O)c2cccn2c2ccccc21)NCCN1CCOCC1 is ____.
a: 592

----------
# TEST METHOD NOTES: gradient 5% acetonitrile 3 min, to 50% in 2 min, to 85% in 15 min, held 3 min, 100 µL/min
# ASSAY CONDITIONS: column: Zorbax Extend-C18 2.1 x 50 mm; eluents: water / acetonitrile, 0.1% formic acid
MEASURE: RP-LC retention time
Number plus unit, in that order.

Worked cases, RP-LC retention time given:
1) CN(CCc1noc(-c2ccc(C(=O)N(C)Cc3ccco3)cc2)n1)C(=O)c1ccccc1 = 817 s
2) CCCNC(=O)C1CCN(c2ccc(SCC(=O)Nc3cccc(CC)c3)nn2)CC1 = 674 s
3) O=C(N[C@@H]1CN(Cc2cc(Cl)ccc2F)C[C@H]1CO)C1CCC1 = 610 s
4) CCSc1nnc(NC(=O)CSc2nccn2-c2ccc(OC)cc2OC)s1 = 682 s
5) Cc1nn(-c2ccc(-c3ccccc3)nn2)c(C)c1S(=O)(=O)N1CCC(C)CC1 = 1160 s

q: Fill blank: measured RP-LC retention time of the molecule CCSC1=C(C#N)C(c2ccccc2Cl)C(C(=O)Nc2ccccc2C)=C(C)N1 (centres undefined) is ____.
a: 862 s

q: Fill blank: measured RP-LC retention time of the molecule COc1ccc(OCC(=O)Nc2ccc(-c3nc(-c4ccc(OC)cc4)no3)cc2)cc1 is ____.
a: 1180 s

q: Fill blank: measured RP-LC retention time of the molecule CC1CCN(S(=O)(=O)c2cccc(-c3cn4cc(Cl)ccc4n3)c2)CC1 is ____.
a: 1000 s

q: Fill blank: measured RP-LC retention time of the molecule COc1ccc(S(=O)(=O)N2CCCC(C(=O)Nc3ccc(F)cc3)C2)cc1OC (centres undefined) is ____.
a: 831 s

q: Fill blank: measured RP-LC retention time of the molecule O=C(Cn1cc(S(=O)(=O)N2CCOCC2)ccc1=O)N1CCCc2ccccc21 is ____.
a: 750 s

----------
# TEST METHOD NOTES: gradient 5% acetonitrile 3 min, to 50% in 2 min, to 85% in 15 min, held 3 min, 100 µL/min
# ASSAY CONDITIONS: column: Zorbax Extend-C18 2.1 x 50 mm; eluents: water / acetonitrile, 0.1% formic acid
MEASURE: RP-LC retention time (s)
Numeric only. Scale: s

q: Fill blank: measured RP-LC retention time of the compound O=C(CSc1nnc(-c2ccco2)o1)N1CCCc2ccccc21 is ____.
a: 887

q: Fill blank: measured RP-LC retention time of the compound COC(=O)C1=CN(c2ccc(N(C)C)cc2)c2ccc(F)cc2S1(=O)=O is ____.
a: 730

q: Fill blank: measured RP-LC retention time of the compound COCCCNC(=O)Cn1cnc2onc(-c3ccc(Cl)cc3)c2c1=O is ____.
a: 792

q: Fill blank: measured RP-LC retention time of the compound Cc1c(Cl)cccc1Nc1c(-c2ccc(C(=O)O)cc2)nc2cnccn12 is ____.
a: 796

q: Fill blank: measured RP-LC retention time of the compound Cc1ccccc1S(=O)(=O)N1CCC(CCC(=O)O)CC1 is ____.
a: 807

q: Fill blank: measured RP-LC retention time of the compound Cc1cccc(N2CCN(C(=O)C3CCCN(c4cc(=O)n(C)c(=O)n4C)C3)CC2)c1C (stereo not given) is ____.
a: 874

q: Fill blank: measured RP-LC retention time of the compound COCc1cc(=O)n(CC(=O)Nc2cc(OC)c(OC)c(OC)c2)c(N2CCOCC2)n1 is ____.
a: 734

q: Fill blank: measured RP-LC retention time of the compound CC1CCN(C(=O)c2nnc(-c3ccc(S(=O)(=O)N4CCCC4)cc3)o2)CC1 is ____.
a: 952

q: Fill blank: measured RP-LC retention time of the compound COc1ccc2nc(Nc3nc(-c4ccncc4)cs3)sc2c1 is ____.
a: 584

q: Fill blank: measured RP-LC retention time of the compound Cc1c(C(=O)NCC(C)C)cnn1-c1ccc(-c2nc(C(C)C)no2)cn1 is ____.
a: 1050

q: Fill blank: measured RP-LC retention time of the compound Cc1[nH]c2ccccc2c1CCNCc1ccc(/C=C/C(=O)NO)cc1 is ____.
a: 659

q: Fill blank: measured RP-LC retention time of the compound CCC(C)NC(=O)C1CCN(S(=O)(=O)c2cc(-c3noc(C)n3)cs2)CC1 (stereo not given) is ____.
a: 797

q: Fill blank: measured RP-LC retention time of the compound Oc1ccc2c3c1OC1C(O)CC[C@@]4(O)[C@@H](C2)N(CC2CCC2)CC[C@]314 (stereo not given in full) is ____.
a: 619

q: Fill blank: measured RP-LC retention time of the compound Cc1ccc(NC(=O)c2nc(C(C)C)oc2C)cc1F is ____.
a: 1140

q: Fill blank: measured RP-LC retention time of the compound O=C(Cc1cccs1)N1CCc2cc(-c3ccno3)ccc21 is ____.
a: 919

q: Fill blank: measured RP-LC retention time of the compound CCOc1ccc(NC(=O)N2CCN(CCn3c(C(C)C)nc4cccnc43)CC2)cc1 is ____.
a: 610

----------
# TEST METHOD NOTES: gradient 5% acetonitrile 3 min, to 50% in 2 min, to 85% in 15 min, held 3 min, 100 µL/min
# ASSAY CONDITIONS: column: Zorbax Extend-C18 2.1 x 50 mm; eluents: water / acetonitrile, 0.1% formic acid
MEASURE: RP-LC retention time (s)
Numeric only. Scale: s

Worked cases, RP-LC retention time given:
1) COC1CCC12CCN(Cc1cccc(F)c1)CC2 (stereo not given) = 637
2) COc1ccc(C(=O)N2CCn3c(C)nnc3C2)cc1F = 593
3) COc1ccccc1-c1nc2nccc(-c3ccc(Cl)cc3)n2n1 = 956
4) COc1ccc(NS(=O)(=O)c2cc(-c3nc(C)c(C(=O)N4CCCC4)s3)n(C)c2)cc1OC = 727
5) CNC(=O)Nc1cccn2nc(-c3ccccc3)nc12 = 702
6) CCn1cc(CC(=O)NCc2ccc(F)cc2F)c2cccnc21 = 723
7) O=C(CC1CCCC1)NCc1cccnc1-c1ccc(F)cc1 = 674
8) CCc1ccc(C(=O)N2CCCn3nc(-c4cccs4)cc3C2)cc1 = 913
9) COc1ccc(NC(=O)N2CC(C)Oc3ccc(C)cc32)cc1 (stereo not given) = 945

// next item, RP-LC retention time requested
q: Fill blank: measured RP-LC retention time of the molecule CCN1c2cc(F)ccc2C(=O)NC12CCN(C(=O)c1cccc(OC)c1)CC2 is ____.
a: 756
